Reference source: patent US20240174637A1

- TEST TARGET: GRK2 (Homo sapiens, UniProt P25098)
- Sequence (P25098 whole entry): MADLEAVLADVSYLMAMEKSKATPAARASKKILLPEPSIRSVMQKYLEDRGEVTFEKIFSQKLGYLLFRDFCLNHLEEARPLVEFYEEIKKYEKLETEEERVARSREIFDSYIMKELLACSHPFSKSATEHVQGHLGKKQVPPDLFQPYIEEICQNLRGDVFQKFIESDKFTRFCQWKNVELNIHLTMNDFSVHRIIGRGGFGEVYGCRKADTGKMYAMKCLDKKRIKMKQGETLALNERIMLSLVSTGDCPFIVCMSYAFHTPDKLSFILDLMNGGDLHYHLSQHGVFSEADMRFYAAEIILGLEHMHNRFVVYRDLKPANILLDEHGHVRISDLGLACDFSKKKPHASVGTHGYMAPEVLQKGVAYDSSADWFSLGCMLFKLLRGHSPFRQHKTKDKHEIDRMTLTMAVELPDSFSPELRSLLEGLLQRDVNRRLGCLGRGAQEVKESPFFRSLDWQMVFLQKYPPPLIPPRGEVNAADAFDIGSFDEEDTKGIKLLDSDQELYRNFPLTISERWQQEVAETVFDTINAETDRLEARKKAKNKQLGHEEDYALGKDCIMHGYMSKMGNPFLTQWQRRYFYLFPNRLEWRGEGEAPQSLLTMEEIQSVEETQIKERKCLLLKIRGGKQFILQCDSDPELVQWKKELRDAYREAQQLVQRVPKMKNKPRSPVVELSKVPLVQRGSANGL
- TEST: GRK2 Degradation Assay and Western Blot in PAXF1657 cells
- Type: cell-based
- Set-up: endogenous in cells; host or cells: PAXF1657
- MEASUREMENT PARAMETERS: Conc 1 uM; read-out: Degradation Assay - 3 point: Degradation (%)
Where a name gives a salt, the structure may show the parent alone.
Each entry falls in a class defined on inhibition at 1 µM; the bands are low end: < 50%; middle: ≥ 50% and < 80%; high end: ≥ 80%

Field: class (inhibition at 1 µM) — entry: Cn1c(CNc2cccc(C(=O)N[C@H]3CCOc4ccc(OCCCCCOCCCOCC(=O)Nc5cccc6c5CN(C5CCC(=O)NC5=O)C6=O)cc43)c2)nnc1-c1ccncn1 (stereo partly shown)
middle

Field: class (inhibition at 1 µM) — entry: C[C@H](NC(=O)c1cccc(NCc2nnc(-c3ccncn3)n2C)c1)c1ccc(OCCCN2CCN(c3ccc4c(c3)CN(C3CCC(=O)NC3=O)C4=O)CC2)cc1 (stereo partly shown) [Compound D118, hydrochloride]
low end

Field: class (inhibition at 1 µM) — entry: C[C@@H](NC(=O)c1cccc(NCc2nnc(-c3ccncn3)n2C)c1)c1ccc(OCCCCCCOCCOCCOCCCC(=O)N2CCN(c3cc4c(cc3F)C(=O)N(C3CCC(=O)NC3=O)C4=O)CC2)cc1 (stereo partly shown)
high end

Field: class (inhibition at 1 µM) — entry: C[C@@H](NC(=O)c1cccc(NCc2nnc(-c3ccncn3)n2C)c1)c1cccc(OCCCCCOCCCOCCNc2cccc3c2CN(C2CCC(=O)NC2=O)C3=O)c1 (stereo partly shown)
middle

Field: class (inhibition at 1 µM) — entry: C[C@@H](NC(=O)c1cccc(NCc2nnc(-c3ccncn3)n2C)c1)c1cccc(OCCCCCOCCCOCC(=O)Nc2cccc3c2CN(C2CCC(=O)NC2=O)C3=O)c1 (stereo partly shown)
high end

Field: class (inhibition at 1 µM) — entry: C[C@@H](NC(=O)c1cccc(NCc2nnc(-c3ccncn3)n2C)c1)c1cccc(C(=O)N2CCC(CCCN3CCN(c4ccc5c(c4)CN(C4CCC(=O)NC4=O)C5=O)CC3)CC2)c1 (stereo partly shown) [Compound D119, hydrochloride]
high end

Field: class (inhibition at 1 µM) — entry: C[C@@H](NC(=O)c1cccc(NCc2nnc(-c3ccncn3)n2C)c1)c1cccc(OCCCCCCn2cc(CCCCC(=O)Nc3cccc4c3CN(C3CCC(=O)NC3=O)C4=O)nn2)c1 (stereo partly shown)
low end

Field: class (inhibition at 1 µM) — entry: C[C@@H](NC(=O)c1cccc(NCc2nnc(-c3ccncn3)n2C)c1)c1cccc(OCCCCCCOCCOCCN2CCN(c3ccc4c(c3)CN(C3CCC(=O)NC3=O)C4=O)CC2)c1 (stereo partly shown)
high end

Field: class (inhibition at 1 µM) — entry: C[C@@H](NC(=O)c1cccc(NCc2nnc(-c3ccncn3)n2C)c1)c1cccc(OCCCCCCOCCOCCOCCC(=O)N2CCN(c3cc4c(cc3F)C(=O)N(C3CCC(=O)NC3=O)C4=O)CC2)c1 (stereo partly shown)
high end

Field: class (inhibition at 1 µM) — entry: "Cc1ncsc1-c1ccc(CNC(=O)[C@@H]2C[C@@H](O)CN2C(=O)[C@@H](NC(=O)COCCCOCCCCCOc2ccc([C@H](C)NC(=O)c3cccc(NCc4nnc(-c5ccncn5)n4C)c3)cc2)C(C)(C)C)cc1"
middle

Field: class (inhibition at 1 µM) — entry: "Cc1ncsc1-c1ccc(CNC(=O)[C@@H]2C[C@@H](O)CN2C(=O)[C@@H](NC(=O)CCCOCCOCCOCCCCCCOc2ccc([C@@H](C)NC(=O)c3cccc(NCc4nnc(-c5ccncn5)n4C)c3)cc2)C(C)(C)C)cc1"
low end

Field: class (inhibition at 1 µM) — entry: Cn1c(CNc2cccc(C(=O)N[C@H]3CCOc4ccc(OCCCCCCOCCOCCOCCCCCC(=O)Nc5cccc6c5CN(C5CCC(=O)NC5=O)C6=O)cc43)c2)nnc1-c1ccncn1 (stereo partly shown)
low end

Field: class (inhibition at 1 µM) — entry: C[C@@H](NC(=O)c1cccc(NCc2nnc(-c3ccncn3)n2C)c1)c1cccc(C(=O)N2CCC(CCN3CCN(c4ccc5c(c4)CN(C4CCC(=O)NC4=O)C5=O)CC3)CC2)c1 (stereo partly shown)
high end

Field: class (inhibition at 1 µM) — entry: C[C@H](NC(=O)c1cccc(NCc2nnc(-c3ccncn3)n2C)c1)c1cccc(OCCCCCOCCCOCC(=O)Nc2cccc3c2CN(C2CCC(=O)NC2=O)C3=O)c1 (stereo partly shown)
low end

Field: class (inhibition at 1 µM) — entry: C[C@@H](NC(=O)c1cccc(NCc2nnc(-c3ccncn3)n2C)c1)c1cccc(OCCCCCCOCCOCC(=O)N2CCN(c3cc4c(cc3F)C(=O)N(C3CCC(=O)NC3=O)C4=O)CC2)c1 (stereo partly shown)
high end

Field: class (inhibition at 1 µM) — entry: "Cc1ncsc1-c1ccc(CNC(=O)[C@@H]2C[C@@H](O)CN2C(=O)[C@@H](NC(=O)CCCOCCOCCOCCCCCCCCOc2ccc([C@@H](C)NC(=O)c3cccc(NCc4nnc(-c5ccncn5)n4C)c3)cc2)C(C)(C)C)cc1"
low end
